- assayedTarget: human TRPV1 (Homo sapiens)
- Construct: expressed in transfected cells
- Sequence (Q8NER1 whole entry): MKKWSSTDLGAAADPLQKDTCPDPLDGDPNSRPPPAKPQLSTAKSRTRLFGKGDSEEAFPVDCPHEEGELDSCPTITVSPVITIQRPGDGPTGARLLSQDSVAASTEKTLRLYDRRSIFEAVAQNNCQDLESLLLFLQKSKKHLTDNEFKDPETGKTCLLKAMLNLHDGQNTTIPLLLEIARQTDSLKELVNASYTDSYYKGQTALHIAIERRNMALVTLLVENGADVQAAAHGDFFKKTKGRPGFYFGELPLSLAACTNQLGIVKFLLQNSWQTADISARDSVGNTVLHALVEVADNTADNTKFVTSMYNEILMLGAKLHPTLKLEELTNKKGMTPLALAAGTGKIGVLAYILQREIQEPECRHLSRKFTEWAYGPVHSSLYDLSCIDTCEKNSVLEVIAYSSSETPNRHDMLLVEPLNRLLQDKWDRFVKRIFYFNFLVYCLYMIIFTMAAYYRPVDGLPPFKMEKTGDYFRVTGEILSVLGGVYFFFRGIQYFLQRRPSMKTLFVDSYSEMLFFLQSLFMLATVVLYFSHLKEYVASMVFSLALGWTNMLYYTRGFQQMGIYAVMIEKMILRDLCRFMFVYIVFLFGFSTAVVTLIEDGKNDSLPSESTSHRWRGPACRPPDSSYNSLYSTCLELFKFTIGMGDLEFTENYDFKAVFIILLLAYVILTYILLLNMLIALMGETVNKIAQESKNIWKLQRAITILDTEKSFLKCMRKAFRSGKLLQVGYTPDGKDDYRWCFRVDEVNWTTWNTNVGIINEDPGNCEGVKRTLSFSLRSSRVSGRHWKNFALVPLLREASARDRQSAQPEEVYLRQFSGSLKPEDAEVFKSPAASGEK
- methodNotes: Capsaicin Activation Assay (FLIPR intracellular Ca2+, recombinant HEK293 cells)
- Type: cell-based
- details: recombinant HEK293 cells expressing hTRPV1; 50 nM capsaicin; read-out: human TRPV1 capsaicin IC50
The entries below are paired with their reported pIC50.
Interpret pIC50 as the negative base-10 log of the concentration measured in mol/L.

Observe how each entry below is paired with its result.
- O=C(Nc1cccc2c1C[C@@H](O)C2)N[C@H]1CCOc2cc(OC(F)(F)F)ccc21: 5.23
- O=C(Nc1cccc2c1CC(O)C2)NC1CC(c2ccc(Cl)cc2)Oc2ccccc21 (centres unmarked): 6.89
- O=C(Nc1ccc(F)c2c1C[C@H](O)C2)N[C@@H]1CC(CF)(CF)Oc2ccccc21: 5.18
- O=C(Nc1ccc(F)c2c1C[C@@H](O)C2)N[C@@H]1CCOc2cc(OC(F)(F)F)ccc21: 6.07

### Prompt Report pIC50 for `O=C(Nc1cccc2c1C[C@H](O)C2)N[C@@H]1CCOc2cc(F)ccc21` please.
### Response 6.57

### Prompt Report pIC50 for `CC1(C)C[C@@H](NC(=O)Nc2cccc3c2C[C@@H](O)C3)c2cc(F)ccc2O1` please.
### Response 6.10

### Prompt Report pIC50 for `O=C(Nc1cccc2c1C[C@@H](O)C2)N[C@@H]1CC(CF)(CF)Oc2cc(OC(F)(F)F)ccc21` please.
### Response 7.49

### Prompt Report pIC50 for `O=C(Nc1cccc2c1C[C@@H](O)C2)N[C@@H]1CC(CF)(CF)Oc2c1ccc(Cl)c2F` please.
### Response 7.23
